- Study System: CDK5 CDK5R1 p25 (human) (UniProt Q00535+Q15078)
- Sequence (Q00535 whole entry, looked up): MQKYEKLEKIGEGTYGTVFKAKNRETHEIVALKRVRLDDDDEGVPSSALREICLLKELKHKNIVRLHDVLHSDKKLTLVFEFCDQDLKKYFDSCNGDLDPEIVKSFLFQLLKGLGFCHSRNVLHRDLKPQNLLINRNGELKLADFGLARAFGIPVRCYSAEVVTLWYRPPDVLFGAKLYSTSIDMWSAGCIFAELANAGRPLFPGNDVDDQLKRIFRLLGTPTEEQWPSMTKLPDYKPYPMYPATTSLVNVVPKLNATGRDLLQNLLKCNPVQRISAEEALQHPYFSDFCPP
- Sequence (Q15078 whole entry, looked up): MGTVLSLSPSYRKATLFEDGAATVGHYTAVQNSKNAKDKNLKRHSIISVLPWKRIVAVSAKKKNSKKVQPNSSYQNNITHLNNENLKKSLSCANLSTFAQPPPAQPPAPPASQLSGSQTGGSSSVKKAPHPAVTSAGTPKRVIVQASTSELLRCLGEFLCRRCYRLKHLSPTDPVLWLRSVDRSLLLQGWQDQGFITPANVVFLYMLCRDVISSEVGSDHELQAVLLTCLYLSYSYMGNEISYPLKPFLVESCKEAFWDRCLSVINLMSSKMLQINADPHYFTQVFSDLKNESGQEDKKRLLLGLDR
- Test Details: radiometric filter-binding kinase assay, Kinase HotSpot
- Condition Description: compound 0.5 µM; ATP 10 µM
Listed here are compounds together with their documented residual activity.
Property Measured: residual activity (%)

[[record]]
structure_notation = "O=c1c(-c2ccc(F)cc2)c(-c2ccncc2)[nH]n1-c1ccc(Cl)cc1"
measured_value = 76.3

[[record]]
structure_notation = "COc1cc2c(Nc3ccc(Br)cc3F)ncnc2cc1OCC1CCN(C)CC1"
measured_value = 97.8

[[record]]
structure_notation = "N#C/C(=C1/Nc2ccccc2S1)c1ccnc(NCCc2cccnc2)n1"
measured_value = 90

[[record]]
structure_notation = "COc1cc2c(N3CCN(C(=O)Nc4ccc(OC(C)C)cc4)CC3)ncnc2cc1OCCCN1CCCCC1"
measured_value = 104

[[record]]
structure_notation = "Nc1ncnc2c1cnn2-c1ccccc1"
measured_value = 102

[[record]]
structure_notation = "COc1cc2c(cc1OC)-c1[nH]nc(Nc3cccc(F)c3)c1C2"
measured_value = 89

[[record]]
structure_notation = "CC(C)(C)n1nc(Cc2cccc3ccccc23)c2c(N)ncnc21"
measured_value = 109

[[record]]
structure_notation = "N/C(=N\\N=C/c1ccc(-c2cccc([N+](=O)[O-])c2)o1)N[N+](=O)[O-]"
measured_value = 96.5

[[record]]
structure_notation = "Cc1cc(Nc2nc(-c3ccccc3)nc3ccccc23)n[nH]1"
measured_value = 98.7

[[record]]
structure_notation = "O=C1NC(=O)c2cc(Nc3ccc(F)cc3)c(Nc3ccc(F)cc3)cc21"
measured_value = 85.9

[[record]]
structure_notation = "O=C(c1ccccc1)c1ccc(N2CCOCC2)cc1O"
measured_value = 98.8

[[record]]
structure_notation = "O=c1c2ccccc2[nH]c(=S)n1CCN1CCC(=C(c2ccc(F)cc2)c2ccc(F)cc2)CC1"
measured_value = 93.5

